- Measurement description: In vitro photo-release and hydrolytic release of dicamba in an aqueous medium (Example 36)
- Type: physicochemical
- Experimental context: 0.01 mM (0.005 mM for diesters), amber (dark) bottle, Day 0
Quick reference: Conversion to Dicamba, Dark, Day 0 of the listed items.
Numeric answer only, unit % assumed.

# example entries with known answers
- Molecule: "COc1c(Cl)ccc(Cl)c1C(=O)Oc1nc(C(C)(C)C)cc(C(C)(C)C)c1C#N [Ester 36a]"
  Units symbol: "%"
  Conversion to Dicamba, Dark, Day 0: 20
- Molecule: "COc1ccc(COC(=O)c2c(Cl)ccc(Cl)c2OC)cc1 [Ester 29a, 4-methoxybenzyl ester of dicamba]"
  Units symbol: "%"
  Conversion to Dicamba, Dark, Day 0: 27
- Molecule: "COc1c(Cl)ccc(Cl)c1C(=O)Oc1ccccn1 [Ester 14, 2-Hydroxypyridine Ester of Dicamba]"
  Units symbol: "%"
  Conversion to Dicamba, Dark, Day 0: 2
- Molecule: "COc1c(Cl)ccc(Cl)c1C(=O)Oc1ccc(OC(=O)c2c(Cl)ccc(Cl)c2OC)nn1 [Ester 17, Maleic Hydrazide Diester of Dicamba]"
  Units symbol: "%"
  Conversion to Dicamba, Dark, Day 0: 6
- Molecule: "COc1c(Cl)ccc(Cl)c1C(=O)Oc1ccc(=O)n(CCC=O)n1 [Ester 33a]"
  Units symbol: "%"
  Conversion to Dicamba, Dark, Day 0: 13
- Molecule: "CCOC(=O)CCn1nc(OC(=O)c2c(Cl)ccc(Cl)c2OC)ccc1=O [Ester 35a]"
  Units symbol: "%"
  Conversion to Dicamba, Dark, Day 0: 19
- Molecule: "C=C(C(=O)OCC)C(OC(=O)c1c(Cl)ccc(Cl)c1OC)c1ccccc1[N+](=O)[O-] (centres unmarked) [Ester 31a]"
  Units symbol: "%"
  Conversion to Dicamba, Dark, Day 0: 16

# context switch: different molecule, same Conversion to Dicamba, Dark, Day 0
Form field: reported Conversion to Dicamba, Dark, Day 0 of COc1c(Cl)ccc(Cl)c1C(=O)Oc1ccc(=O)n(CCC#N)n1 [Ester 34a] 3

* * *

- Measurement description: In vitro photo-release and hydrolytic release of dicamba in an aqueous medium (Example 36)
- Type: physicochemical
- Experimental context: 0.01 mM (0.005 mM for diesters), quartz tube, Day 4
- Protocol: This Example describes the determination of photo-lability and hydrolytic lability of dicamba esters in an aqueous medium. 1 mM solutions of the esters were prepared in acetonitrile (or […] solutions of dicamba diesters). The solutions were then diluted with deionized water to a concentration of 0.01 mM (or 0.005 mM for diesters). […] Hydrolytic activity was assessed by measuring the increase in dicamba concentration after day zero in the amber (dark) bottles. […]
Result type: Conversion to Dicamba, Light, Day 4 (%)
Numeric answer only, unit % assumed.

# example entries with known answers
- Molecule: "C=C(C(=O)OCC)C(OC(=O)c1c(Cl)ccc(Cl)c1OC)c1ccccc1[N+](=O)[O-] (stereo not shown) [Ester 31a]"
  Conversion to Dicamba, Light, Day 4, %: 45
- Molecule: "COc1c(Cl)ccc(Cl)c1C(=O)Oc1ccc(=O)n(CCC=O)n1 [Ester 33a]"
  Conversion to Dicamba, Light, Day 4, %: 22
- Molecule: "COc1c(Cl)ccc(Cl)c1C(=O)Oc1nc(C(C)(C)C)cc(C(C)(C)C)c1C#N [Ester 36a]"
  Conversion to Dicamba, Light, Day 4, %: 59

# context switch: different molecule, same Conversion to Dicamba, Light, Day 4
Form field: reported Conversion to Dicamba, Light, Day 4 of COc1c(Cl)ccc(Cl)c1C(=O)Oc1ccc(=O)n(CCC#N)n1 [Ester 34a] 20

* * *

Quick reference: Conversion to Dicamba, Light, Day 21 of the listed items.
- Measurement description: In vitro photo-release and hydrolytic release of dicamba in an aqueous medium (Example 36)
- Assay type: physicochemical
- Experimental context: 0.01 mM (0.005 mM for diesters), quartz tube, Day 21
Numeric answer only, unit % assumed.

# example entries with known answers
- Compound: "COc1c(Cl)ccc(Cl)c1C(=O)Oc1ccc(=O)n(CCC#N)n1 [Ester 34a]"
  Conversion to Dicamba, Light, Day 21 [%]: 60
- Compound: "COc1c(Cl)ccc(Cl)c1C(=O)Oc1ccc(=O)n(CCC=O)n1 [Ester 33a]"
  Conversion to Dicamba, Light, Day 21 [%]: 53
- Compound: "CCOC(=O)CCn1nc(OC(=O)c2c(Cl)ccc(Cl)c2OC)ccc1=O [Ester 35a]"
  Conversion to Dicamba, Light, Day 21 [%]: 63
- Compound: "COc1c(Cl)ccc(Cl)c1C(=O)Oc1nc(C(C)(C)C)cc(C(C)(C)C)c1C#N [Ester 36a]"
  Conversion to Dicamba, Light, Day 21 [%]: 65

Form field: reported Conversion to Dicamba, Light, Day 21 of COc1c(Cl)ccc(Cl)c1C(=O)Oc1ccccn1 [Ester 14, 2-Hydroxypyridine Ester of Dicamba] 71

Form field: reported Conversion to Dicamba, Light, Day 21 of C=C(C(=O)OCC)C(OC(=O)c1c(Cl)ccc(Cl)c1OC)c1ccccc1[N+](=O)[O-] (stereo not drawn) [Ester 31a] 53

* * *

- Test system: velvetleaf
- Measurement description: Greenhouse post-emergent control of velvetleaf by emulsifiable concentrates (Example 30)
- Type: in vivo
- Experimental context: 280 g/ha
Quick reference: % Control of velvetleaf, 280 g/ha of the listed items.
Numeric answer only, unit % assumed.

- Compound: "COc1c(Cl)ccc(Cl)c1C(=O)O.NCCOCCO [Diglycolamine salt, diglycolamine salt of dicamba, reference compound]"
  Units symbol: "%"
  Result value: 86
- Compound: "COc1c(Cl)ccc(Cl)c1C(=O)OCCOc1ccccc1[N+](=O)[O-]"
  Units symbol: "%"
  Result value: 57
- Compound: "COc1c(Cl)ccc(Cl)c1C(=O)Oc1cnc2ccccc2n1 [Ester 13a, 2-quinoxalinol ester of dicamba]"
  Units symbol: "%"
  Result value: 69

Any idea what % Control of velvetleaf, 280 g/ha came out for "COc1c(Cl)ccc(Cl)c1C(=O)OCCOCc1ccccc1[N+](=O)[O-]" on velvetleaf? 52

* * *

Quick reference: Conversion to Dicamba, Dark, Day 2 of the listed items.
- Measurement description: In vitro photo-release and hydrolytic release of dicamba in an aqueous medium (Example 35)
- Format: physicochemical
- Experimental context: 0.01 mM ester, amber (dark) bottle, 35° C., Day 2
Numeric answer only, unit % assumed.

Form field: reported Conversion to Dicamba, Dark, Day 2 of COc1c(Cl)ccc(Cl)c1C(=O)Oc1cnc2ccccc2n1 [Ester 13a, 2-quinoxalinol ester of dicamba] 7

Form field: reported Conversion to Dicamba, Dark, Day 2 of COc1c(Cl)ccc(Cl)c1C(=O)OCCc1ccccc1[N+](=O)[O-] [Ester 2, 2-Nitrophenethyl Ester of Dicamba] 3

Form field: reported Conversion to Dicamba, Dark, Day 2 of COc1c(Cl)ccc(Cl)c1C(=O)OCc1ccccc1[N+](=O)[O-] [Ester 1a, 2-Nitrobenzyl Ester of Dicamba] 8

Form field: reported Conversion to Dicamba, Dark, Day 2 of COc1c(Cl)ccc(Cl)c1C(=O)Oc1ccc(=O)n(CCC(C)=O)n1 [Ester 32a] 14

* * *

- Tested on: morning glory
- Measurement description: Field testing of emulsifiable concentrates, post-emergent control (Example 38)
- Assay type: in vivo
- Experimental context: 280 g dicamba acid equivalent per hectare, 11 or 21 days after treatment
Result type: % control, 280 g/ha, Morning glory (%)
Numeric answer only, unit % assumed.

# example entries with known answers
- Compound: "COc1c(Cl)ccc(Cl)c1C(=O)OCCc1ccccc1[N+](=O)[O-] [Ester 2, 2-Nitrophenethyl Ester of Dicamba]"
  Result value: 94
- Compound: "COc1c(Cl)ccc(Cl)c1C(=O)O.NCCOCCO [Diglycolamine salt, diglycolamine salt of dicamba, reference compound]"
  Result value: 100

Form field: reported % control, 280 g/ha, Morning glory of COc1c(Cl)ccc(Cl)c1C(=O)Oc1cnc2ccccc2n1 [Ester 13a, 2-quinoxalinol ester of dicamba] 100

Form field: reported % control, 280 g/ha, Morning glory of COc1c(Cl)ccc(Cl)c1C(=O)OCc1ccccc1[N+](=O)[O-] [Ester 1a, 2-Nitrobenzyl Ester of Dicamba] 100

Form field: reported % control, 280 g/ha, Morning glory of COc1ccc(C(=O)COC(=O)c2c(Cl)ccc(Cl)c2OC)cc1 [Ester 9] 98

* * *

- Measurement description: In vitro photo-release and hydrolytic release of dicamba in an aqueous medium (Example 36)
- Format: physicochemical
- Experimental context: 0.01 mM (0.005 mM for diesters), quartz tube, Day 4
Result type: Conversion to Dicamba, Light, Day 4
# number then unit; no other words

# example entries with known answers
- Molecule: "COc1c(Cl)ccc(Cl)c1C(=O)Oc1ccccn1 [Ester 14, 2-Hydroxypyridine Ester of Dicamba]"
  Result type: "Conversion to Dicamba, Light, Day 4"
  Result value: "68%"
- Molecule: "COc1ccc(COC(=O)c2c(Cl)ccc(Cl)c2OC)cc1 [Ester 29a, 4-methoxybenzyl ester of dicamba]"
  Result type: "Conversion to Dicamba, Light, Day 4"
  Result value: "74%"
- Molecule: "CCOC(=O)CCn1nc(OC(=O)c2c(Cl)ccc(Cl)c2OC)ccc1=O [Ester 35a]"
  Result type: "Conversion to Dicamba, Light, Day 4"
  Result value: "62%"

# context switch: different molecule, same Conversion to Dicamba, Light, Day 4
Form field: reported Conversion to Dicamba, Light, Day 4 of COc1c(Cl)ccc(Cl)c1C(=O)Oc1ccc(OC(=O)c2c(Cl)ccc(Cl)c2OC)nn1 [Ester 17, Maleic Hydrazide Diester of Dicamba] 36%
